The origin of these recorded values is patent US20250230155A1.

Emax at 30 µM for assorted molecules
Biological target: human mAChR M4 (Homo sapiens)
Construct: expressed in transfected cells
Sequence (P08173 whole entry): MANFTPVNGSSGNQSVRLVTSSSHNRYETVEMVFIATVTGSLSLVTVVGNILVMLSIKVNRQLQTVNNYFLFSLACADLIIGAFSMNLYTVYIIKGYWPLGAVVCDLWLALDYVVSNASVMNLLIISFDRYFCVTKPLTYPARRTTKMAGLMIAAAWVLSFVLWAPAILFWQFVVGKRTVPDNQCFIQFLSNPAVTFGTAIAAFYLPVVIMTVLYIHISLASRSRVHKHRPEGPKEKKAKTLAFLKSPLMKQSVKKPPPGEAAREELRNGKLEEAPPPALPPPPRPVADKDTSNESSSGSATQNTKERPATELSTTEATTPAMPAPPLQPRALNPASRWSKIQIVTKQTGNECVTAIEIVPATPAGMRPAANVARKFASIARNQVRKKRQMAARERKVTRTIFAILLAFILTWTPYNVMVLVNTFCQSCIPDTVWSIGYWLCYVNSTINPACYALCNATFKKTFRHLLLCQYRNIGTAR
Experiment: mAChR M4 cell-based functional assay (calcium mobilization, CHO-K1 hM4-Gqi5 cells)
Conditions: CHO-K1, % ACh maximum at 30 μM; human M4
attribute-measured: Emax at 30 µM (%)

molecule	reported-result
COc1cccc2cc(CNC(=O)c3cnc(N4CCc5ncccc5C4)c(C)c3)oc12	65
Cc1nc(Cl)c(C)c(N2Cc3cc([N+](=O)[O-])cnc3C(C)C2)n1 (centres unmarked)	91
Cc1c(C#N)nnc(N2CCc3ncc(-c4ccc(N5CC(C(C)(C)O)C5)nc4)cc3C2)c1C	66
Cc1cc(C(=O)NCc2ccccn2)cnc1N1CCc2ncc(-c3cn(C)nc3C)cc2C1	84
Cc1cnccc1CNC(=O)c1cc(C)c(N2CCc3ncc(N4CCCn5nccc54)cc3C2)nn1	91
Cc1cc(C(=O)N2CC(F)C2)nnc1N1CCc2ncc(Nc3ccnn3C)cc2C1	73
Cc1c(C#N)nnc(N2CCc3ncc(C(F)F)cc3C2)c1C	94
Cc1cc(C(=O)N2CC(c3cccnc3)C2)nnc1N1CCc2ncc(N3CCO[C@H](C)C3)cc2C1	101
